B1: TRIM63 (parent)
chain: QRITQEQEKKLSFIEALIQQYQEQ

- Variants of: B1
- ASSAY_COMMENT: protein stability index of a GFP-peptide fusion (GPS, HEK-293T) (PSI 1-6); higher = more stable;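 also: lentivirally expressed fusions sorted by FACS into six bins by GFP to DsRed ratio, PSI derived from sequencing read proportions per bin multiplied by bin number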
- MEASUREMENT_PARAMETERS: c terminus: a fixed tail appended
I'd appreciate it if you could supply protein stability index values for the items below.
Reply briefly: the number, and no unit.

Task: # protein stability index lookup, item QRITHEQEKKLSFIEALIQQYQEQ [Q5H]
Result: 2.05

Task: # protein stability index lookup, item QRITQEQEKKLSFIEALIQQYQPQ [E23P]
Result: 1.95

Task: # protein stability index lookup, item QRITQEQEKKQSFIEALIQQYQEQ [L11Q]
Result: 3.08

Task: # protein stability index lookup, item QRITQEQEKKLSFIEAMIQQYQEQ [L17M]
Result: 2.93

Task: # protein stability index lookup, item QRITQEQEKKLSFIEAHIQQYQEQ [L17H]
Result: 3.06

Task: # protein stability index lookup, item WRITQEQEKKLSFIEALIQQYQEQ [Q1W]
Result: 1.95
